Target: Androgen Receptor (Homo sapiens, UniProt P10275)
Construct: endogenous in cells; host or cells: VCaP cells
Sequence (P10275 whole entry): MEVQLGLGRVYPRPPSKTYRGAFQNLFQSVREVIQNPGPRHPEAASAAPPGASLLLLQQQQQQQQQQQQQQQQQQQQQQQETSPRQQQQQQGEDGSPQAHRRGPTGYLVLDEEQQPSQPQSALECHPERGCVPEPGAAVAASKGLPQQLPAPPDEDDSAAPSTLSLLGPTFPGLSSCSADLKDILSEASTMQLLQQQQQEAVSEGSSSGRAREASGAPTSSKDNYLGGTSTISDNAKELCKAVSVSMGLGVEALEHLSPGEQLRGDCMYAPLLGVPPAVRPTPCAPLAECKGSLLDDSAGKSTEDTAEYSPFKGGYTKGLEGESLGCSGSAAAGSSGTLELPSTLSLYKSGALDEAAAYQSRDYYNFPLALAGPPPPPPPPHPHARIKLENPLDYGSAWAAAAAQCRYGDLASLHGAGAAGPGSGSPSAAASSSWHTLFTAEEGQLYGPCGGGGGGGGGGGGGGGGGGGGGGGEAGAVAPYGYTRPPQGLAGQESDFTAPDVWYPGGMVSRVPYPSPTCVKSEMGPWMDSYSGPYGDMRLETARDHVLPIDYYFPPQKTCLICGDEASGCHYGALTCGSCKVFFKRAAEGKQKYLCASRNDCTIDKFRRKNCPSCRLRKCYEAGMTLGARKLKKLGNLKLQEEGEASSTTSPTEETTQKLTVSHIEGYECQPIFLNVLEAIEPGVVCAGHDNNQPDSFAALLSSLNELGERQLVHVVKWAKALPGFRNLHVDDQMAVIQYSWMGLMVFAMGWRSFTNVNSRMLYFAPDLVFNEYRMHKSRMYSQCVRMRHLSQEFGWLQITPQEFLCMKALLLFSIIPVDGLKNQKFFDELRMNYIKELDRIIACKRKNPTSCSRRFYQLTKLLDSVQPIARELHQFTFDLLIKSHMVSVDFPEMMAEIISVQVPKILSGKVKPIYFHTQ
Test: Androgen Receptor ELISA assay (PathScan AR ELISA) in VCaP cells: AR degradation, Dmax and DC50
Format: cell-based
Conditions: VCaP, read-out: VCaP Dmax (%)
Protocol: 1. Androgen Receptor ELISA Assay. The protocols used with VCaP cells are described below. The androgen receptor ELISA assay was performed using PathScan AR ELISA (Cell Signaling Catalog #12850) according to the following assay steps: […]
readout.name: Dmax

Guide cases for Dmax, answers given:
# sample.smiles, reading
data = [
    ("Cc1ncoc1-c1ccc(CNC(=O)[C@@H]2C[C@@H](O)CN2C(=O)[C@@H](NC(=O)COCCCOCCCCOc2ccc(N3C(=S)N(c4ccc(C#N)c(Cl)c4)C(=O)C3(C)C)cc2)C(C)(C)C)cc1", "51 to 70%"),
    ("Cc1ncsc1-c1ccc(CNC(=O)[C@@H]2C[C@@H](O)CN2C(=O)[C@@H](NC(=O)COCCCOc2ccc(-c3ccc(N4C(=S)N(c5ccc(C#N)c(C(F)(F)F)c5)C(=O)C4(C)C)cc3)cc2)C(C)(C)C)cc1", "51 to 70%"),
]

Okay, here is my list. What is Dmax for each of these?
1. Cc1ncsc1-c1ccc([C@H](C)NC(=O)[C@@H]2C[C@@H](O)CN2C(=O)[C@@H](NC(=O)CN[C@H]2C[C@H](N3CCN(c4ccc(C(=O)N[C@H]5C(C)(C)[C@H](Oc6ccc(C#N)c(Cl)c6)C5(C)C)cn4)CC3)C2)C(C)(C)C)cc1
2. Cc1ncsc1-c1ccc(CNC(=O)[C@@H]2C[C@@H](O)CN2C(=O)[C@@H](NC(=O)c2cccc(OCCCCOc3ccc(N4C(=S)N(c5ccc(C#N)c(C(F)(F)F)c5)C(=O)C4(C)C)cc3)c2)C(C)(C)C)cc1
3. Cc1ncsc1-c1ccc(CNC(=O)[C@@H]2C[C@@H](O)CN2C(=O)[C@H](C(C)C)N2CC(OCCCOCCCOc3ccc(N4C(=S)N(c5ccc(C#N)c(C(F)(F)F)c5)C(=O)C4(C)C)cc3)=CC2=O)cc1
4. Cc1ncsc1-c1ccc(CNC(=O)[C@@H]2C[C@@H](O)CN2C(=O)[C@@H](NC(=O)COCCCCOCCCCOc2ccc(N3C(=S)N(c4ccc(C#N)c(C(F)(F)F)c4)C(=O)C3(C)C)cc2F)C(C)(C)C)cc1
5. CC(=O)O[C@@H]1C[C@@H](C(=O)N[C@@H](C)c2ccc(-c3scnc3C)cc2)N(C(=O)[C@H](C(C)C)N2Cc3ccc(OCCN4CCN(c5ccc(C(=O)N[C@H]6C(C)(C)[C@H](Oc7ccc(C#N)c(Cl)c7)C6(C)C)cn5)CC4)cc3C2=O)C1
6. Cc1ncsc1-c1ccc(CNC(=O)[C@@H]2C[C@@H](O)CN2C(=O)[C@@H](NC(=O)COCCCCOc2ccc(-c3ccc(N4C(=S)N(c5ccc(C#N)c(C(F)(F)F)c5)C(=O)C4(C)C)cc3)cc2)C(C)(C)C(=O)OC(C)(C)C)cc1

1: 51 to 70%; 2: 51 to 70%; 3: 26 to 50%; 4: 51 to 70%; 5: < 25%; 6: 51 to 70%

====

Biological target: Androgen Receptor (Homo sapiens, UniProt P10275)
Construct: endogenous in cells; host or cells: VCaP cells
Assay: Androgen Receptor ELISA assay (PathScan AR ELISA) in VCaP cells: AR degradation, Dmax and DC50
Type: cell-based
Details: VCaP, VCaP cells; Table 36; read-out: VCaP Dmax (%)
For each record, write down the corresponding Dmax.

# molecule, reading
rows = [
    ("Cc1ncsc1-c1ccc(C(CO)NC(=O)[C@@H]2CC(O)CN2C(=O)[C@@H](NC(=O)CN2CCN(CCN3CCN(c4ccc(C(=O)NC5C(C)(C)C(Oc6ccc(C#N)c(Cl)c6)C5(C)C)cn4)CC3)CC2)C(C)(C)C)cc1 (some centres unmarked)", "> 71%"),
]

Next molecule, Dmax to be filled in.
Which Dmax is reported for this molecule? Cc1ncsc1-c1ccc([C@H](C)NC(=O)[C@@H]2C[C@@H](O)CN2C(=O)[C@H](c2cc(CCCN3CCN(c4ccc(C(=O)N[C@H]5C(C)(C)[C@H](Oc6ccc(C#N)c(Cl)c6)C5(C)C)cn4)CC3)no2)C(C)C)cc1 < 25%

====

For each record, write down the corresponding Dmax.
Target: Androgen Receptor (Homo sapiens)
Construct: endogenous in cells; host or cells: VCaP cells
Assay: Androgen Receptor ELISA assay (PathScan AR ELISA) in VCaP cells: AR degradation, Dmax and DC50
Type: cell-based
Settings: VCaP, read-out: VCaP Dmax (%)

# sample.smiles, Dmax
data = [
    ("Cc1ncsc1-c1ccc(CNC(=O)[C@@H]2C[C@@H](O)CN2C(=O)[C@@H](NC(=O)CN2CCN(CCCc3cn(-c4ccc(C(=O)N[C@H]5C(C)(C)[C@H](Oc6ccc(C#N)c(C(F)(F)F)c6)C5(C)C)cc4)nn3)CC2)C(C)(C)C)cc1", "51 to 70%"),
    ("Cc1ncoc1-c1ccc([C@H](C)NC(=O)[C@@H]2C[C@@H](O)CN2C(=O)[C@@H](NC(=O)COCCCCOc2ccc(-c3ccc(N4C(=S)N(c5ccc(C#N)c(C(F)(F)F)c5)C(=O)C4(C)C)cc3)cc2)C(C)(C)C)cc1", "> 71%"),
    ("Cc1ncsc1-c1ccc(CNC(=O)[C@@H]2C[C@@H](O)CN2C(=O)[C@@H](NC(=O)COCCCCOc2ccc(-c3ccc(N4C(=S)N(c5ccc(C#N)c(C(F)(F)F)c5)C(=O)C4(C)C)cc3)cc2)C(C)(C)C)cc1", "> 71%"),
]

Next molecule, Dmax to be filled in.
Which Dmax is reported for this molecule? Cc1ncsc1-c1ccc(CNC(=O)[C@@H]2C[C@@H](O)CN2C(=O)[C@@H](NC(=O)COCCCCOC2CCN(C(=O)c3ccc(N4C(=S)N(c5ccc(C#N)c(C(F)(F)F)c5)C(=O)C4(C)C)cc3)CC2)C(C)(C)C)cc1 < 25%

====

For each record, write down the corresponding DC50.
Molecular target: Androgen Receptor (Homo sapiens, UniProt P10275)
Construct: endogenous in cells; host or cells: VCaP cells
Experiment: Androgen Receptor ELISA assay (PathScan AR ELISA) in VCaP cells: AR degradation, Dmax and DC50
Format: cell-based
Conditions: read-out: VCaP DC50; VCaP cells; Table 36

Guide cases for DC50, answers given:
# compound, test.system, DC50
data = [
    ("Cc1ncsc1-c1ccc([C@H](C)NC(=O)[C@@H]2C[C@@H](O)CN2C(=O)[C@@H](NC(=O)CN2C3CCC2CN(CCCc2ccc(C(=O)N[C@H]4C(C)(C)[C@H](Oc5ccc(C#N)c(Cl)c5)C4(C)C)cn2)C3)C(C)(C)C)cc1 [Example 839]", "Androgen Receptor (Homo sapiens, UniProt P10275)", "< 50 nM"),
    ("Cc1ncsc1-c1ccc([C@H](C)NC(=O)[C@@H]2C[C@@H](O)CN2C(=O)[C@@H](NC(=O)OCc2ccccc2)[C@@H](C)OCCCCCCOc2ccc(N3C(=O)N(c4ccc(C#N)c(C(F)(F)F)c4)C(=O)C3(C)C)cc2)cc1 [Example 677]", "Androgen Receptor (Homo sapiens, UniProt P10275)", "> 501 nM"),
    ("Cc1ncsc1-c1ccc(CNC(=O)[C@@H]2C[C@@H](O)CN2C(=O)[C@@H](C(C)C)n2cc(OCC#CC#CCOc3ccc(N4C(=S)N(c5ccc(C#N)c(C(F)(F)F)c5)C(=O)C4(C)C)cc3)cn2)cc1 (racemic) [Example 616]", "Androgen Receptor (Homo sapiens, UniProt P10275)", "> 501 nM"),
]

Next compound, DC50 to be filled in.
Which DC50 is reported for this compound? Cc1nccn1-c1ccc([C@H](C)NC(=O)[C@@H]2C[C@@H](O)CN2C(=O)C(C(C)C)n2cc(OCCCOCCCCCOc3ccc(N4C(=S)N(c5ccc(C#N)c(C(F)(F)F)c5)C(=O)C4(C)C)cc3)cn2)cc1 (stereo in doubt) [Example 612] > 501 nM

====

Target: Androgen Receptor (Homo sapiens, UniProt P10275+P40337, T878A)
Construct: Compounds have been evaluated in this assay in LNCaP and/or VCaP cells utilizing similar protocols; endogenous in cells; host or cells: LNCaP cells
Sequence (P10275 whole entry T878A): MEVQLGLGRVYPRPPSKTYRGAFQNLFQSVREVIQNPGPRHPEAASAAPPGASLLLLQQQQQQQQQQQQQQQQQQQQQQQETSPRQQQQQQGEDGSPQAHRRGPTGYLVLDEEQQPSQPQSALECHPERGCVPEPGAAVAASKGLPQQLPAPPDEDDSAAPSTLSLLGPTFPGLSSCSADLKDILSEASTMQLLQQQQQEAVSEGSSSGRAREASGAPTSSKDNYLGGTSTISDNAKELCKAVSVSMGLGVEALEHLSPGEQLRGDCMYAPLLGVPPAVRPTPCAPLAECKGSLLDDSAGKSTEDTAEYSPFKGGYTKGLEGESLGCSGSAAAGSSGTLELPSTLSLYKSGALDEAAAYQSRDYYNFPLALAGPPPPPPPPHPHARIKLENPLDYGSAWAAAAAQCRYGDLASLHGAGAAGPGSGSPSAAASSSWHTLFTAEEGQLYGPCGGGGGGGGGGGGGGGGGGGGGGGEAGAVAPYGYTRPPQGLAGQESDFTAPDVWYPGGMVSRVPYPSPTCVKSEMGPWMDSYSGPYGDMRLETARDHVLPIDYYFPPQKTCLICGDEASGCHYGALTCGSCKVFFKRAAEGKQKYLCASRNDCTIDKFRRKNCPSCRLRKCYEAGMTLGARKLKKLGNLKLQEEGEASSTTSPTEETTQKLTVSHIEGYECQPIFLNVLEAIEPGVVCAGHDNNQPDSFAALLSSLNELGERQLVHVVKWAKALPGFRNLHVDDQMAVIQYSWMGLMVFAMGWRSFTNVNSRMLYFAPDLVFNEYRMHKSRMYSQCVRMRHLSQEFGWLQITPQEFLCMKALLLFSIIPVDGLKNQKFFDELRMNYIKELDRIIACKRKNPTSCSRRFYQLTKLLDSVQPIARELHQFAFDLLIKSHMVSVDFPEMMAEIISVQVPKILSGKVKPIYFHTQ
Sequence (P40337 whole entry): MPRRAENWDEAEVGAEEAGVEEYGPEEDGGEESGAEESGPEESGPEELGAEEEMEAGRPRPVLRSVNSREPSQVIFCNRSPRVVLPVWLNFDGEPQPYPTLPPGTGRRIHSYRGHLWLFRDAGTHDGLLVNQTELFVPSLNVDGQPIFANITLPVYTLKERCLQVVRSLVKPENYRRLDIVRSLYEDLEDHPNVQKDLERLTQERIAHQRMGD
Sequence (Q15369 whole entry partner): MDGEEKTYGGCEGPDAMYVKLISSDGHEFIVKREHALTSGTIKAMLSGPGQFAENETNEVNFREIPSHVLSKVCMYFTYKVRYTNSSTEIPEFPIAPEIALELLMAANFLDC
Sequence (Q15370 whole entry partner): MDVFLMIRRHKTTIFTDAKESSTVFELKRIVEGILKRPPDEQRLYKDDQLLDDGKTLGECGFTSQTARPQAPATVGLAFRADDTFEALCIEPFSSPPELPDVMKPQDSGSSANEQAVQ
Test: Androgen Receptor ELISA assay (PathScan AR ELISA) in LNCaP cells: AR degradation, Dmax and DC50
Assay type: cell-based
Conditions: concentration that caused 50% Androgen Receptor degradation
For each record, write down the corresponding DC50.

Guide cases for DC50, answers given:
# sample.smiles, DC50
rows = [
    ("Cc1ncsc1-c1ccc(CNC(=O)[C@@H]2C[C@@H](O)CN2C(=O)[C@@H](NC(=O)COCCCOCCCOc2ccc(N3C(=S)N(c4ccc(C#N)c(C(F)(F)F)c4)C(=O)C3(C)C)cc2)C(C)(C)C)cc1", "51 to 500 nM"),
    ("Cc1ncsc1-c1ccc(CNC(=O)[C@@H]2C[C@@H](O)CN2C(=O)[C@@H](NC(=O)COCCCOCCCCCOc2ccc(N3C(=S)N(c4ccc(C#N)c(C(F)(F)F)c4)C(=O)C3(C)C)cc2)C(C)(C)C)cc1", "< 50 nM"),
    ("Cc1ncsc1-c1ccc(CNC(=O)[C@@H]2C[C@@H](O)CN2C(=O)[C@@H](NC(=O)c2ccc(OCCCCOc3ccc(-c4ccc(N5C(=S)N(c6ccc(C#N)c(C(F)(F)F)c6)C(=O)C5(C)C)cc4)cc3)cc2)C(C)(C)C)cc1", "> 501 nM"),
]

Okay, here is my list. What is DC50 for each of these?
1. Cc1ncsc1-c1ccc(CNC(=O)[C@@H]2C[C@@H](O)CN2C(=O)[C@@H](NC(=O)OCCOCCOc2ccc(-c3ccc(N4C(=S)N(c5ccc(C#N)c(C(F)(F)F)c5)C(=O)C4(C)C)cc3)cc2)C(C)(C)C)cc1
2. Cc1ncsc1-c1ccc(CNC(=O)[C@@H]2C[C@@H](O)CN2C(=O)[C@@H](NC(=O)COCCCOCCCCOc2ccc(N3C(=S)N(c4ccc(C#N)c(C(F)(F)F)c4)C(=O)C3(C)C)cc2F)C(C)(C)C)cc1
3. Cc1ncsc1-c1ccc(CNC(=O)[C@@H]2C[C@@H](O)CN2C(=O)[C@@H](NC(=O)c2ccc(C3CCN(CCCCOc4ccc(N5C(=S)N(c6ccc(C#N)c(C(F)(F)F)c6)C(=O)C5(C)C)cc4)CC3)cc2)C(C)(C)C)cc1
4. Cc1ncsc1-c1ccc(CNC(=O)[C@@H]2C[C@@H](O)CN2C(=O)[C@@H](NC(=O)OCCOCCCOCCOc2ccc(N3C(=S)N(c4ccc(C#N)c(C(F)(F)F)c4)C(=O)C3(C)C)cc2)C(C)(C)C)cc1
5. Cc1ncsc1-c1ccc(CNC(=O)[C@@H]2C[C@@H](O)CN2C(=O)[C@H](C(C)C)N2Cc3ccccc3C2=O)c(OCCCOCCOc2ccc(N3C(=S)N(c4ccc(C#N)c(C(F)(F)F)c4)C(=O)C3(C)C)cc2)c1
6. Cc1ncsc1-c1ccc(CNC(=O)[C@@H]2C[C@@H](O)CN2C(=O)[C@@H](NC(=O)c2ccc(OCCOc3ccc(-c4ccc(N5C(=S)N(c6ccc(C#N)c(C(F)(F)F)c6)C(=O)C5(C)C)cc4)cc3)cc2)C(C)(C)C)cc1

["51 to 500 nM", "< 50 nM", "> 501 nM", "< 50 nM", "< 50 nM", "< 50 nM"]
